Test system: SEM cells
Test: cell viability relative to DMSO control; higher = less cytotoxic
Conditions: RPMI 5 mM glucose + 10% FBS; 48 h; 0.0632 µM
Readout label: cell viability

Recorded cell viability, per entry:
C#Cc1cccc(Nc2ncnc3cc(OCCOC)c(OCCOC)cc23)c1    114%
COc1ccc(CC2NCCc3cc(OC)c(OC)cc32)cc1OC (stereo not drawn)    82.4%
COc1cc2c(cc1OC)C1CC(=O)C(CC(C)C)CN1CC2 (stereo not drawn)    103%
CN(c1ncccc1CNc1nc(Nc2ccc3c(c2)CC(=O)N3)ncc1C(F)(F)F)[S+](C)(=O)[O-]    129%
COc1c(C)cnc(Cn2cnc3c(Cl)nc(N)nc32)c1C    100%
OC1=C(O)C2=C(\C=C/C(=O)O2)C=C1    70%
NC1(Cc2ccc(Cl)cc2)CCN(c2ncnc3[nH]ccc23)CC1    112%
[NH2][Pt]1([NH2])[O]CC(=O)[O]1    108%
CC(C)n1c(/C=C/[C@H](O)C[C@H](O)CC(=O)O)c(-c2ccc(F)cc2)c2ccccc21    116%
CC1CCC(C(=O)N(c2cc(C#CC(C)(C)C)sc2C(=O)O)C2CCC(O)CC2)CC1 (stereo not drawn)    116%

Input line: So what does the record say about cell viability for C[C@@H](NC1=CC=CC=C1C(O)=O)C/2=C/C(=C\N3C(=O)/C=C(\N=C23)N4CCOCC4)C ?
Output line: 104%

Input line: How about COC[C@H]1OC(=O)C2=COC3=C2[C@@]1(C)\C4=C(C5CCC(=O)[C@@]5(C)C[C@H]4OC(C)=O)/C3=O (stereo partly drawn) ?
Output line: 109%

Input line: Same read-out for C[C@H](O)[C@H]1[C@@H]2[C@H](C)C(=C(\N2C1=O)C(O)=O)/S[C@@H]3CN[C@H](CN[S+](N)([O-])=O)C3 ?
Output line: 132%

Input line: Another molecule to check: CN(C)CCOc1cc(-c2cn[nH]c2)ccc1NC(=O)C1COc2ccccc2O1 (stereo not drawn)
Output line: 118%

Input line: How about FC(F)(F)c1ccc(/C=C/c2nc(COc3ccc(CCCCn4ccnn4)cc3)co2)cc1 ?
Output line: 105%

Input line: Also, c1cncc(CN2CCC(n3ncc4c(N5CCOCC5)nc(-c5ccc6[nH]ccc6c5)nc43)CC2)c1 please.
Output line: 105%

Input line: Same for Cc1cn2c(-c3cn[nH]c3)cnc2c(Nc2ccc(C(=O)N3CCNCC3)cc2F)n1
Output line: 112%

Input line: Also CCC1(C)CC(=O)NC1=O (stereo not drawn) ?
Output line: 103%

---

Examples of compounds with documented cell viability follow.
Tested on: P12-Ichikawa
Assay: cell viability relative to DMSO control; higher = less cytotoxic
Details: RPMI 5 mM glucose + 10% FBS; 48 h; 0.0211 µM

Sample answers from the record:
C\C1=C\C(=O)OC2=C1C=CC(=C2)O    122%
CN(C)c1ccc(O)c2c1C[C@H]1C[C@H]3[C@H](N(C)C)C(O)=C(C(N)=O)C(=O)[C@@]3(O)C(O)=C1C2=O    100%
CC(C)NCC(O)COc1ccc(COCCOC(C)C)cc1 (stereo unspecified)    120%
CC(=O)N(C)c1cccc(-c2ccnc3c(C(=O)c4cccs4)cnn23)c1    80.9%
CC(C)OC(=O)OCOP(=O)(CO[C@H](C)Cn1cnc2c(N)ncnc21)OCOC(=O)OC(C)C.O=C(O)C=CC(=O)O    122%

Next item in the queue.
Input line: What value of cell viability has been reported for the following compound? CC(=O)Nc1ccc(OC[C@](C)(O)C(=O)Nc2ccc([N+](=O)[O-])c(C(F)(F)F)c2)cc1
Output line: 87%

---

System: SEM cells
Test: cell viability relative to DMSO control; higher = less cytotoxic
Details: RPMI 5 mM glucose + 10% FBS; 48 h; 0.569 µM
Readout label: cell viability (%)
Write the value in % as a bare number.

Known cell viability results, listed for orientation:
CN(C)CCOc1cc(-c2cn[nH]c2)ccc1NC(=O)C1COc2ccccc2O1 (centres undefined)    103
CC1(C)CC(=O)c2c(C(F)(F)F)nn(-c3ccc(C(N)=O)c(NC4CCC(O)CC4)c3)c2C1 (centres undefined)    15.7
CC1(C)O[C@@H]2C[C@H]3[C@@H]4CCC5=CC(=O)C=C[C@]5(C)[C@@]4(F)[C@@H](O)C[C@]3(C)[C@]2(C(=O)CO)O1    7.13

Input line: Give recorded cell viability with SEM cells for the following compound: CC1=CC=CC=C1N2\C(=N/C3=C(C(=CC=C3)C)C2=O)C[N]4C=NC5=C4N=CN=C5N
Output line: 59.4

---

Test system: P12-Ichikawa
Assay: cell viability relative to DMSO control; higher = less cytotoxic
Conditions: RPMI 5 mM glucose + 10% dialyzed FBS; 48 h; 5.12 µM
Readout label: cell viability (%)
The figure you give is taken to be in %; do not add the unit.

Sample answers from the record:
COc1nccc(-c2c(-c3ccc(F)cc3)ncn2C2CCNCC2)n1    104
CC(NC1=CC=CC=C1)C\2=C\C(=C/N3C(=O)\C=C(/N=C23)N4CCOCC4)C (centres undefined)    105
CCC1(C)CC(=O)NC1=O (centres undefined)    96.3

Input line: What value of cell viability has been recorded for this entry: CC/C(=C(/c1ccc(O)cc1)c1ccc(OCCNC)cc1)c1ccccc1
Output line: 64.7

Input line: What do we get for Cn1c(=O)c2c(ncn2C)n(C)c1=O.O=C(O)CC(O)(CC(=O)O)C(=O)O ?
Output line: 113

Input line: Same for CC1(C)O[C@@H]2C[C@H]3[C@@H]4CCC5=CC(=O)C=C[C@]5(C)[C@@]4(F)[C@@H](O)C[C@]3(C)[C@]2(C(=O)CO)O1
Output line: 34

---

The entries below come with measured cell viability values attached.
System: SEM cells
Assay: cell viability relative to DMSO control; higher = less cytotoxic
Settings: HPLM + 10% dialyzed FBS; 48 h; 5.12 µM
Only the number, expressed in %, is required.

Cc1ccc(NC(=O)c2ccc(CN3CCN(C)CC3)cc2)cc1Nc1nc(-c2cccnc2)cs1    28.2
c1cncc(CN2CCC(n3ncc4c(N5CCOCC5)nc(-c5ccc6[nH]ccc6c5)nc43)CC2)c1    73.4
CN1[C@@H]2CC(OC(=O)[C@@H](CO)c3ccccc3)C[C@H]1[C@H]1O[C@H]12 (stereo partly drawn)    108
CC(C)[C@@H](N(CCCN)C(=O)C1=CC=C(C)C=C1)C/2=N/C3=CC(=CC=C3C(=O)N2CC4=CC=CC=C4)Cl    21.9
COC1=CC=CC2=C1C(=NC(=N2)C3=CC=CS3)NN4C(=O)\C=C(C)/C4=O    11.3
COc1ccc(C[C@@H](C)[C@@H](C)Cc2ccc(OC)c(OC)c2)cc1OC    19

Input line: Query (compound): CN\1C(=O)/C(=C(\N=C1N2CCCC[S+]2([O-])=O)C(=O)NCC3=CC=C(F)C=C3)O ; field requested: cell viability
Output line: 98.3

Input line: What would you report for [NH2][Pt]1([NH2])[O]CC(=O)[O]1 ?
Output line: 108

Input line: Another: COc1cnc(N[S+](=O)([O-])c2ccc(N)cc2)nc1
Output line: 109

Input line: Query ClC1=C(N\C2=N\CCN2)C3=NSN=C3C=C1 next
Output line: 115

Input line: Likewise for CC(C)c1cnn2c(NCc3ccccc3)cc(N[C@@H](CO)[C@H](O)CO)nc12 ?
Output line: 5.66

---

Tested on: P12-Ichikawa
Assay: cell viability relative to DMSO control; higher = less cytotoxic
Settings: HPLM + 10% dialyzed FBS; 48 h; 0.0632 µM
Readout label: cell viability
// unit must come after the numeric part

// solved cases for cell viability follow
COc1cc2c(cc1OC)C1CC(=O)C(CC(C)C)CN1CC2 (centres undefined)    113%
Cc1nc(NC(=O)N2CCC[C@H]2C(N)=O)sc1-c1ccnc(C(C)(C)C(F)(F)F)c1    97.7%
Cl.Cl.Cl.O[C@@H](COc1cccc2ncccc12)CN1CCN([C@@H]2c3ccccc3[C@@H]3[C@H](c4ccccc42)C3(F)F)CC1    90.5%
O=NN(CCCl)C(=O)NCCCl    103%
CO[C@H]1/C=C/O[C@@]2(C)Oc3c(C)c(O)c4c(O)c(c5c(nc6cc(C)ccn65)c4c3C2=O)NC(=O)/C(C)=C\C=C\[C@H](C)[C@H](O)[C@@H](C)[C@@H](O)[C@@H](C)[C@H](OC(C)=O)[C@@H]1C    107%
OC1=C(O)C2=C(\C=C/C(=O)O2)C=C1    101%

Input line: Would you mind telling me what cell viability value was observed for OC1=CC=C(C=C1)\C2=C\OC3=C(C=CC(=C3)O)C2=O ?
Output line: 110%

Input line: Also, CC1(C)O[C@@H]2C[C@H]3[C@@H]4CCC5=CC(=O)C=C[C@]5(C)[C@@]4(F)[C@@H](O)C[C@]3(C)[C@]2(C(=O)CO)O1 please.
Output line: 86.2%

Input line: Proceed to N=C(CCSCc1csc(N=C(N)N)n1)N[S+](N)(=O)[O-]
Output line: 108%
